System: SF-268 CNS
assayProtocol: NCI-60 one-dose screen, 48 h (100 = growth as untreated, 0 = no growth, -100 = all killed)
runParameters: 10 µM
The panel holds about 83,000 compounds, 20% with a hit somewhere; the sample as a whole holds those more often.
observationType: growth (%)
Numbers only, in %.

The examples below pair each entry with its known result.
INSERT INTO results (entrysmiles, scaleunit, testresult) VALUES
  ('COc1cc(/C=C/C(=O)c2ccccc2)cc(OC)c1OC', '%', 57.9),
  ('CC(=O)Nc1c(C)cc(C)cc1C', '%', 95.4);

Moving on to the next molecule.
Fill in: growth of CCCCNC(=O)C(=O)NCCCC is ___
97.9

* * *

Tested on: CCRF-CEM leukemia
assayProtocol: NCI-60 one-dose screen, 48 h (100 = growth as untreated, 0 = no growth, -100 = all killed)
runParameters: 10 µM
Description: Growth inhibition of the CCRF-CEM human tumor cell line is measured as a screen for anti-cancer activity. Cells are grown in 96 well plates and exposed to the test compound for 48 hours. Compounds are tested at a single concentration, which is 10^-5 M for most compounds. The reported endpoint is percent growth (GI% or GIPRCNT), where numbers from 0 - 100% represent growth inhibition, and numbers from -100% - 0 represent cell death. For example, a value of 40 represents 60% growth inhibition. […]
This is part of a sample that, as a whole, favours compounds with a hit. Of some 83,000 tested, about 20% had one in any assay.
Please respond with reported growth for every item in the list.
Give bare numbers, in %.

The examples below pair each entry with its known result.
INSERT INTO assay_data (compound, targetortestsystem, testresult) VALUES
  ('O=C(N/N=C/c1ccccc1O)Nc1nn[nH]n1', 'CCRF-CEM leukemia', 98.8),
  ('CCCCC(O)c1ccccc1 (stereo not given)', 'CCRF-CEM leukemia', 107),
  ('NC(=S)NN=C1CCCC1', 'CCRF-CEM leukemia', 42.7),
  ('COC(=O)C(C)Oc1ccc(OC#N)cc1 (stereo not given)', 'CCRF-CEM leukemia', 102),
  ('O=C(O)[C@@H]1[C@H]2C[C@H]3c4[nH]c5ccccc5c4CCN3C[C@@H]2CC[C@@H]1O', 'CCRF-CEM leukemia', 103);

# batch: return growth for each of the 7 compounds below
1. CC1CCCCN1C(=S)Nc1ccc(S(=O)(=O)N2CCCCC2)cc1 (stereo not given)
2. O=C(/C(=N/O)c1ccccc1)c1ccccc1
3. O=C1C=CC2=C3c4cc(O)c(O)cc4CC3(O)COC2=C1O (stereo not given)
4. C#C[C@H]1CCCCCC1O (stereo not given in full)
5. COCCOCCCl
6. Cc1ccc(C)n1-c1ccsc1C(=O)NNC(=O)CCl
7. COc1nc(N)nc2c1ncn2C1OC(CO)CC1O (stereo not given)

1: 75.9; 2: 97.9; 3: 104; 4: 97.1; 5: 106; 6: 61; 7: 58.8

# batch: return growth for each of the 6 compounds below
1. CCCCCCCCCCC1CO1 (stereo not given)
2. CCS(=O)(=O)CCCl
3. CCOc1ccc2[nH]c(=S)sc2c1
4. CC1CC(O)CC(C)(C)C1 (stereo not given)
5. c1c(-c2cc(C3CC3)[nH]n2)n[nH]c1C1CC1
6. CCCCC(=O)c1ccc(OC)cc1

97.2
63.6
98.3
96.4
67
92.1

# batch: return growth for each of the 5 compounds below
1. COC(=O)C(O)c1ccccc1 (stereo not given)
2. Oc1ccc(Cc2ccccc2)c2cccnc12
3. COc1cccc(O)c1O
4. O=C(CN1CCNCC1)N1CCOCC1
5. CC(CC(=O)c1ccccc1)c1ccccc1 (stereo not given)

98.1
1.19
63.8
100
98.4

# batch: return growth for each of the 2 compounds below
1. C#CC(C(C)C)N(CCO)CCCC (stereo not given)
2. CC12CC3CC1C(C(=O)O2)C3C(=O)O (stereo not given)

1. 95.6
2. 101

# batch: return growth for each of the 5 compounds below
1. CC1CCC(C(=O)O)N1 (stereo not given)
2. Nc1nc2c(c(-c3nc(N)nc4c3CCc3ccccc3-4)n1)CCc1ccccc1-2
3. CC1Cc2ccccc2O1 (stereo not given)
4. CC(=O)/C(Cc1ccccc1)=N/O
5. CCCCC/C=N/Nc1nc(C)cc(=O)[nH]1

101
107
112
99
105
